System: TK-10 renal
protocol.summary: NCI-60 one-dose screen, 48 h (100 = growth as untreated, 0 = no growth, -100 = all killed)
assay.conditions: 10 µM unless noted
This is part of a sample that, as a whole, favours compounds with a hit. Of some 83,000 tested, about 20% had one in any assay.
Can you tell me growth for the items I'm about to list?
Numbers only, in %.

Below are worked cases with known answers.
| molecule | growth, % |
| --- | --- |
| COc1ccc(-c2cc(Cc3cccs3)c(=O)n(Cn3ccc4ccccc43)n2)cc1 | 98.1 |
| COc1cc(C2C=C(c3ccc(C)cc3)Nc3nc(SC)[nH]c(=O)c32)ccc1Oc1ccnc2cc(Cl)ccc12 (stereo not drawn) | 78.2 |
| O=C(NN(C(=O)c1ccccc1)c1cccs1)c1ccccc1 | 91.7 |
| COc1c(O)cc2oc3cc(O)c(CC=C(C)C)c(O)c3c(=O)c2c1C/C=C(\C)CCC=C(C)C | 37.3 |
| CCOC(=O)C1C(=O)OC2CCCCC21 (stereo not drawn) | 122 |

Record growth per entry; entries follow.
1. O=C(Nc1ccccc1Cl)c1cnc2ccc(C3CCNCC3)cn12
2. COc1cc2c(cc1OCCCOc1ccc(-c3cc4ccccc4c4ccccc34)cc1)N=C[C@@H]1CCCN1C2=O
3. CC(C)[C@]12O[C@H]1[C@@H]1O[C@]13[C@]1(O[C@H]1C[C@H]1C4=C(CC[C@@]13C)C(=O)OC4)[C@@H]2OC(=O)CN(C)C
4. O=C(C=C=Nc1ccccc1)C(=O)N=C=Cc1ccccc1
5. S=c1[nH]nc2sc3ccccc3n12
6. O=C1c2nsnc2C(=O)c2c(F)c(F)c(F)c(F)c21

a:
1: -13.2; 2: -75.6; 3: 4.34; 4: -20.3; 5: 126; 6: -98.9

Record growth per entry; entries follow.
1. O=C1/C(=C/c2ccc([N+](=O)[O-])s2)Oc2ccc(Br)cc21
2. O=C(Nc1ccc(OCc2nnc(-c3ccccc3)o2)c(F)c1)Nc1ccc(Cl)c(C(F)(F)F)c1
3. Cc1nnc(Nc2ccc(NC(=O)Nc3ccc(Cl)cc3)cc2)c2ccccc12
4. CCCCSc1cc(C)nc(N)n1
5. CC(C)C(=O)Cc1cnccn1
6. O=C(/C=C/c1ccccc1)CC(c1ccccc1)N1CCOCC1 (stereo not drawn)

a:
-25.3
33.7
51.7
93.8
104
77

====

System: U251 CNS
protocol.summary: NCI-60 one-dose screen, 48 h (100 = growth as untreated, 0 = no growth, -100 = all killed)
assay.conditions: 10 µM unless noted
Compounds without any hit were thinned out: in the full panel of roughly 83,000, 20% have a hit.
measured.attribute: growth (%)
Give bare numbers, in %.

Below are worked cases with known answers.
| compound | unit.string | growth |
| --- | --- | --- |
| NS(=O)(=O)c1ccc(NC2=C(Cl)C(=O)c3ccccc3C2=O)cc1 | % | 97.5 |
| CC(=O)c1cc(C(=O)c2ccc3c(c2)Sc2ccccc2N3)c2c(C)cc(C)cn12 | % | 14.6 |
| CC1=CSC2=NCCN12 | % | 109 |
| C/C(=C\CCc1ccsc1)CC/C=C(\C)CCCN1CCC(CO)CC1 | % | -3.53 |

Record growth per entry; entries follow.
1. Oc1ccc(Cc2ccc(O)c(C3CC(c4ccc(Cl)cc4)=NN3)c2)cc1C1CC(c2ccc(Cl)cc2)=NN1 (stereo not given)
2. C/C(=N/N=C(N)N)c1ccc(Cl)cc1
3. COc1cc2c(c(OC)c1OC)-c1ccc(NN(C(=O)c3ccccc3)C(=O)c3ccccc3)c(=O)cc1[C@@H](NC(C)=O)CC2 (tested in a mixture with another compound)
4. CCC1(c2ccccc2)Oc2ccccc2-n2c(C#N)c3ccccc3c2C1=O (stereo not given)
5. Cc1ccc2c(c1)C(=O)/C(=C/c1ncc([N+](=O)[O-])n1C)O2
6. Cn1c(=O)c2c(nc(Br)n2CCC(=O)Nc2ccc(F)cc2)n(C)c1=O

a:
1. 12.7
2. 89.4
3. 24.8
4. 96.7
5. -19
6. 96.7

These measurements were taken from PubChem BioAssay (NCI).
